# Species: Mus musculus
# assay.text: Toxicity in the P388 NCI screen defined as the dose that caused an average wt. loss>3g in at least one out of set of mice or the death of one or more of mice
# Format: organism-based
# measurement.setup: in vivo
test.readout: Toxicity (µM/kg)

• COc1cc2c(c(OC)c1OC)-c1ccc(OC)c(=O)cc1[C@@H](N(C)C(=O)CO)CC2 = 2.9
• COc1cc2c(c(OC)c1OC)-c1ccc(OC)c(=O)cc1[C@@H](NC(=O)c1ccccc1)CC2 = 4.3
• COc1cc2c(c(OC)c1OC)-c1ccc(OC)c(=O)cc1[C@@H](NC(C)=O)CC2 = 2.5
• COc1cc2c(c(OC)c1OC)-c1ccc(OC)c(=O)cc1[C@@H](NC(=O)COc1ccccc1)CC2 = 5.1
• COc1cc2c(c3c1OCO3)-c1ccc(OC)c(=O)cc1[C@@H](NC(C)=O)CC2 = 104
• CCCC(=O)N[C@H]1CCc2cc(OC)c(OC)c(OC)c2-c2ccc(OC)c(=O)cc21 = 5.8
• COc1cc2c(c(OC)c1OC)-c1cccc(=O)cc1[C@@H](NC(C)=O)CC2 [CHOLCHICIDE] = 54.2
• CCOC(=O)N[C@H]1CCc2cc(OC)c(OC)c(OC)c2-c2ccc(OC)c(=O)cc21 = 11.7
• COc1cc2c(c(OC)c1O)-c1ccc(OC)c(=O)cc1[C@@H](NC(=O)C(F)(F)F)CC2 = 23.5
• CCOCC(=O)N[C@H]1CCc2cc(OC)c(OC)c(OC)c2-c2ccc(OC)c(=O)cc21 = 2.8
• COc1c(O)c(O)cc2c1-c1ccc(OC)c(=O)cc1[C@@H](NC(C)=O)CC2 = 54
• COc1cc2c(c(OC)c1OC)-c1ccc(OC)c(=O)cc1[C@@H](NC(=O)CO)CC2 = 3
• COc1c2c(cc3c1-c1ccc(OC)c(=O)cc1[C@@H](NC(C)=O)CC3)OCO2 = 39.1
• COc1cc(C(=O)N[C@H]2CCc3cc(OC)c(OC)c(OC)c3-c3ccc(OC)c(=O)cc32)cc(OC)c1OC = 72.6
